# Tested on: liver disorder induced by carbon tetrachloride
# Assay Notes: Effect on liver disorder induced by carbon tetrachloride in rats, repeat with 8 weeks old rats (Example 27)
# Assay type: in vivo, SLC-Wistar male rats
# Experimental Context: Table 5; serum 24 hours after CCl4; 200 mg/kg orally x2; rats 8 weeks old; CCl4 only 41.3 ± 2.5, normal 25.7 ± 0.4
Readout Kind: AlP (K-AU.)
Numeric only. Scale: K-AU.

Worked cases, AlP given:
{"Compound": "COCOC(=O)C1=C(C)NC(C)=C(C(=O)OCOC)C1C1=C(C)OC(C)CO1 (centres unmarked)", "Experimental Value": 27.0}
{"Compound": "COCC1=C(C2C(C(C)=O)=C(C)NC(C)=C2C(C)=O)OCCO1", "Experimental Value": 35.6}
{"Compound": "COC(=O)C1=C(C)NC(C)=C(C(=O)OC)C1C1=C(C)OC(C)CO1 (centres unmarked)", "Experimental Value": 34.4}
{"Compound": "COCOC(=O)C1=C(C)N(COC)C(C)=C(C(=O)OCOC)C1C1=COCCO1", "Experimental Value": 26.3}

Field: next compound
Q. Which AlP value belongs to COCN1C(C)=C(C(C)=O)C(C2=COCCO2)C(C(C)=O)=C1C ?
A. 31.4
